Listed below: HR (Heart Rate) values for each entry.
# Tested on: Ischemic and Nonischemic Isolated Rat Heart
# Experimental details: Isolated perfused rat heart (Langendorff), global ischemia/reperfusion: cardiac function, flow and LDH release
# Parameters: species or system rat (male Sprague-Dawley)
# Experimental setup: Preischemia (Post Drug), 1 μM
Response body: numeric value in beats/min, unit text excluded.

Here is how some compounds turned out for HR (Heart Rate).
| Compound structure | HR (Heart Rate) / beats/min |
| --- | --- |
| CN(C)CCCN(C(=O)Cc1ccccc1)c1ccccc1SCc1ccc(Cl)cc1 | 229 |
| CN(C)CCCN(C(=O)Cc1ccccc1)c1ccccc1OCc1ccccc1.O=C(O)C(=O)O | 230 |
| COc1ccc(CSc2cc(Cl)ccc2N(CCCN(C)C)C(=O)Cc2ccccc2)cc1.Cl | 226 |

Prompt: Could you tell me which HR (Heart Rate) is on file for `CN(C)CCCN(C(=O)Cc1ccccc1)c1ccccc1SCc1ccccc1.Cl` ?
Response: 243

Prompt: # lookup: HR (Heart Rate) of `COc1cc(SCc2ccccc2)c(N(CCCN(C)C)C(=O)Cc2ccccc2)cc1OC`
Response: 216

Prompt: HR (Heart Rate) for `CN(C)CCCN(C(=O)c1ccccc1)c1ccccc1SCc1ccccc1.Cl` ?
Response: 218

Data credit: patent US5116851A
